Data credit: the NIST ThermoML archive (doi:10.1021/je060496l)

conditions: 318.15 K; 101 kPa; Liquid
Recorded Metric: mass density (kg/m3)
Answer in kg/m3, number only, no unit symbol.

Examples with their reported mass density follow.
>>> endpoint_value("CC(O)CO (stereo not given) [1,2-propanediol]")
1018
>>> endpoint_value("OCC(O)CO [glycerol]")
1246.2
>>> endpoint_value("CCCO [propan-1-ol]")
783.3
>>> endpoint_value("CC(C)O [propan-2-ol]")
763.3

Now turn to the next molecule.
Name the recorded mass density for OCCCO [propan-1,3-diol] .
1037.8

* * *

conditions: 303.15 K; 101 kPa; Liquid
Numbers after ± are expanded uncertainties.
Recorded Metric: mass density
Could you write the number and then its unit?

Examples with their reported mass density follow.
>>> endpoint_value("CCCO [propan-1-ol]")
"795.5 ± 1.2 kg/m3"
>>> endpoint_value("CC(O)CO (stereo not given) [1,2-propanediol]")
"1029.2 ± 1.6 kg/m3"
>>> endpoint_value("OCCCO [propan-1,3-diol]")
"1047 ± 1.7 kg/m3"

Name the recorded mass density for OCC(O)CO [glycerol] .
1255.6 ± 2 kg/m3

Name the recorded mass density for CC(C)O [propan-2-ol] .
776.6 ± 1.2 kg/m3

* * *

The entries below come with measured mass density values attached.
conditions: 328.15 K; 101 kPa; Liquid
Answer in kg/m3, number only, no unit symbol.

Examples with their reported mass density follow.
>>> endpoint_value("CC(O)CO (stereo not given)")
1010.2
>>> endpoint_value("OCCCO")
1031.4

Name the recorded mass density for `CC(C)O` .
753.8

Name the recorded mass density for `CCCO` .
774.9

Name the recorded mass density for `OCC(O)CO` .
1239.6

* * *

conditions: 323.15 K; 101 kPa; Liquid
The entries below come with measured mass density values attached.
Answer in kg/m3, number only, no unit symbol.

Examples with their reported mass density follow.
>>> endpoint_value("OCC(O)CO")
1242.9
>>> endpoint_value("CC(C)O")
758.6
>>> endpoint_value("OCCCO")
1034.8
>>> endpoint_value("CC(O)CO (stereo not given)")
1014

Now turn to the next compound.
Name the recorded mass density for `CCCO` .
779

* * *

details: 333.15 K; 101 kPa; Liquid
Recorded Metric: mass density (kg/m3)
Answer in kg/m3, number only, no unit symbol.

Examples with their reported mass density follow.
>>> endpoint_value("CC(C)O")
748.9
>>> endpoint_value("CCCO")
770.8
>>> endpoint_value("CC(O)CO (stereo not given)")
1006.2

Name the recorded mass density for `OCC(O)CO` .
1236

Name the recorded mass density for `OCCCO` .
1028.2

* * *

details: 308.15 K; 101 kPa; Liquid
Recorded Metric: mass density (kg/m3)
Answer in kg/m3, number only, no unit symbol.

>>> endpoint_value("OCCCO")
1044.1
>>> endpoint_value("CC(O)CO (stereo not given)")
1025.3
>>> endpoint_value("OCC(O)CO")
1252.7
>>> endpoint_value("CCCO")
791.5

Now turn to the next compound.
Name the recorded mass density for `CC(C)O` .
772.3

* * *

The entries below come with measured mass density values attached.
conditions: 313.15 K; 101 kPa; Liquid
Answer in kg/m3, number only, no unit symbol.

Examples with their reported mass density follow.
>>> endpoint_value("OCC(O)CO [glycerol]")
1249.5
>>> endpoint_value("CC(O)CO (stereo not given) [1,2-propanediol]")
1021.5
>>> endpoint_value("CC(C)O [propan-2-ol]")
767.9
>>> endpoint_value("OCCCO [propan-1,3-diol]")
1040.8

Name the recorded mass density for CCCO [propan-1-ol] .
787.3
